biological target: TARP γ8 dependent AMPA receptor (GRIA1o-CACNG8 fusion construct) (Homo sapiens (Human), UniProt P42261+Q8WXS5); assay: Calcium flux assay (FLIPR), inhibition of glutamate response of GluA1o-γ8 channel; settings: HEK293 cells stably expressing GRIA1o-CACNG8 fusion; calcium flux after 15 μM glutamate; negative log of the IC50 in molar
Sequence (P42261 other isoform, or with tags, fused parts or gaps): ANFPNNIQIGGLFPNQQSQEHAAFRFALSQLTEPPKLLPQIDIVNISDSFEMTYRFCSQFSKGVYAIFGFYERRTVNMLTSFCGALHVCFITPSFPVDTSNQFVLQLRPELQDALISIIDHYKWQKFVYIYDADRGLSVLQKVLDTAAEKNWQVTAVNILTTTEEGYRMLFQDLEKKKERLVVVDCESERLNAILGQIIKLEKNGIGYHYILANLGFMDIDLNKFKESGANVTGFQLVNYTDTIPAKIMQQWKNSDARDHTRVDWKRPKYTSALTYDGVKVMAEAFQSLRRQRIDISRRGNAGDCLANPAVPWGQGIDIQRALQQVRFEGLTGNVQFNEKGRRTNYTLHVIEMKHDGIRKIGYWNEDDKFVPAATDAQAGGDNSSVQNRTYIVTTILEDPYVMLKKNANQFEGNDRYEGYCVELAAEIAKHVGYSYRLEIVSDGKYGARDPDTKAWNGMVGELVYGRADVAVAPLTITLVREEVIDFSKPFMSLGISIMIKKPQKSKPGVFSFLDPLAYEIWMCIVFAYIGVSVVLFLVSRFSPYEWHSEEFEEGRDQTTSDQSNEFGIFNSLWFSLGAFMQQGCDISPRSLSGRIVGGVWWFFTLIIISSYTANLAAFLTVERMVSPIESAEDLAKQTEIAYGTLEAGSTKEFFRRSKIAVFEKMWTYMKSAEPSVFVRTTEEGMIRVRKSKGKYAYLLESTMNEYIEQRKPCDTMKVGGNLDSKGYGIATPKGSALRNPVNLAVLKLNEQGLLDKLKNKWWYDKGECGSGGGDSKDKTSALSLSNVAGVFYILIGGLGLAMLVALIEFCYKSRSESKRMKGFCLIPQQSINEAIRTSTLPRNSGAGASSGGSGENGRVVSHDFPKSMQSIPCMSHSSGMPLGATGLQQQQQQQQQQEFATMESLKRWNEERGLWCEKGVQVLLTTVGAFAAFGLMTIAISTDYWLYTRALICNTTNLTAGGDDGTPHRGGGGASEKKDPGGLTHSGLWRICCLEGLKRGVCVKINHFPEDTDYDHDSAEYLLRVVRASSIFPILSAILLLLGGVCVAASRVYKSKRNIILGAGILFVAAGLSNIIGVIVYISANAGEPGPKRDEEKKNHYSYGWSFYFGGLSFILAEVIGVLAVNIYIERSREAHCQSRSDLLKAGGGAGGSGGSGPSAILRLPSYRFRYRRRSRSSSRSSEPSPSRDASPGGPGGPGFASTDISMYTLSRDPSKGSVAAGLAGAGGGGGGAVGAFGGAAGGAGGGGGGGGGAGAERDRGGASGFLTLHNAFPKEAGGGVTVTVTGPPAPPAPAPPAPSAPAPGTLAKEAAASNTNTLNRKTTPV
REPORTED_ENDPOINT: pIC50
In plain terms, pIC50 is the concentration in mol/L turned into minus its base-10 logarithm.

| MOLECULE | VALUE_OBSERVED |
| --- | --- |
| FC(F)(F)c1nc2c(Cl)cc(C(F)(F)F)c(-c3cc(Cl)c4[nH]ncc4c3)n2n1 [Example 5] | 9.50 |
| O=c1[nH]c2ccc(-c3c(C(F)(F)F)ccc4nc(C(F)F)nn34)cc2s1 [Example 54] | 9.10 |

Would you mind telling me what pIC50 value was observed for CCc1ccc2nc(C(F)(F)F)nn2c1-c1cc(C)c2[nH]ncc2c1 [Example 52] ? 9.30

Now this one: FC(F)(F)c1nc2ccc(C(F)(F)F)c(-c3cc(Cl)c4[nH]ncc4c3)n2n1 [Example 1] 10.10

Would you kindly repeat that for CC(F)(F)c1ccc2nc(C(F)(F)F)nn2c1-c1cc(Cl)c2[nH]ncc2c1 [Example 53] ? 10.30

---

In this section, each of the molecules is paired with its reported pIC50.
target: TARP γ8 dependent AMPA receptor (GRIA1o-CACNG8 fusion construct) (Homo sapiens (Human), UniProt P42261+Q8WXS5); experiment: Calcium flux assay (FLIPR), inhibition of glutamate response of GluA1o-γ8 channel; conditions: HEK293 cells stably expressing GRIA1o-CACNG8 fusion; calcium flux after 15 μM glutamate; negative log of the IC50 in molar
API: returns pIC50 as number; meaning -log10 of concentration in mol/L.

Recorded pIC50 of Cc1nc2ccc(C(F)(F)F)c(-c3cc(C)c4c(c3)CC(=O)N4)n2n1 , please. 7.70

Continue with CCc1nc2c(C)cc(C(F)(F)F)c(-c3cc(Cl)c4c(c3)CC(=O)N4)n2n1 9.20

Ok, now CCc1nc2ccc(C(F)(F)F)c(-c3cc(C)c4[nH]ncc4c3)n2n1 9.00

Likewise for Cc1cc(C(F)F)c(-c2cc(Cl)c3[nH]ncc3c2)n2nc(C(F)(F)F)nc12 ? 9.60

---

molecular target: TARP γ8 dependent AMPA receptor (GRIA1o-CACNG8 fusion construct) (Homo sapiens (Human), UniProt P42261+Q8WXS5); assay: Calcium flux assay (FLIPR), inhibition of glutamate response of GluA1o-γ8 channel; details: HEK293 cells stably expressing GRIA1o-CACNG8 fusion; calcium flux after 15 μM glutamate; negative log of the IC50 in molar
REPORTED_ENDPOINT: IC50 (nM)
Please reply with the bare figure in nM and do not write the unit itself.

Previously resolved entries follow.
| SMILES_NOTATION | VALUE_OBSERVED |
| --- | --- |
| Cc1cc(-c2c(C(F)F)ccc3nc(C(F)(F)F)nn23)cc2cn[nH]c12 | 0.158 |
| CCc1nc2c(C)cc(C(F)(F)F)c(-c3cc(C(F)(F)F)c4[nH]ncc4c3)n2n1 | 0.316 |
| Cc1cc(-c2c(-c3ccc(F)cc3)ccc3nc(C(F)(F)F)nn23)cc2cn[nH]c12 | 0.0398 |
| FC(F)c1ccc2nc(C(F)(F)F)nn2c1-c1cc(Cl)c2[nH]ncc2c1 | 0.1 |
| Cc1cc(-c2c(C(F)(F)F)ccc3nc(C4CC4)nn23)cc2cn[nH]c12 | 0.316 |
| FC(F)(F)c1ccc2cc(C3CC3)nn2c1-c1cc(Cl)c2[nH]ncc2c1 | 0.0631 |
| CCc1nc2c(CC)cc(C(F)(F)F)c(-c3cc(C)c4[nH]ncc4c3)n2n1 | 3.16 |

Lab note: next compound to report on.
Quick one: IC50 for CCc1nc2ccc(-c3ccc(F)cc3)c(-c3cc(C)c4[nH]ncc4c3)n2n1 ? 0.2
